Test system: rodent lifetime carcinogenesis bioassay, tumor incidence TD50
PROCEDURE_SUMMARY: carcinogenic potency in animals, long-term in vivo studies, CPDB compilation (AID 1745844)
PARTICULARS: rat; strain Osborne-Mendel; both sexes; in feed; site: lung; lesion: lymphosarcoma; dosed 104 weeks; study length 104 weeks
READOUT_TYPE: TD50 (mg/kg/day)

1) ClC1=C(Cl)[C@]2(Cl)[C@H]3[C@H]([C@@H]4C=C[C@H]3C4)[C@@]1(Cl)C2(Cl)Cl : 42.3

----------
System: rodent lifetime carcinogenesis bioassay, tumor incidence TD50
PROCEDURE_SUMMARY: carcinogenic potency in animals, long-term in vivo studies, CPDB compilation (AID 1745844)
PARTICULARS: rat; strain Fischer 344; females; in feed; site: mammary gland; lesion: adenoma; dosed 93 weeks; study length 103 weeks
READOUT_TYPE: TD50

1) Cc1ccc(N)cc1N : 1.46 mg/kg/day
